target: AKR1C1 (Homo sapiens (Human), UniProt Q04828); assay: AKR enzyme inhibition assay, NADP+ dependent oxidation of S-tetralol, AKR1C1; details: Table 2; recombinant enzyme, S-tetralol at Km; read-out: IC50 ± SD AKR1C1
Sequence (Q04828 whole entry): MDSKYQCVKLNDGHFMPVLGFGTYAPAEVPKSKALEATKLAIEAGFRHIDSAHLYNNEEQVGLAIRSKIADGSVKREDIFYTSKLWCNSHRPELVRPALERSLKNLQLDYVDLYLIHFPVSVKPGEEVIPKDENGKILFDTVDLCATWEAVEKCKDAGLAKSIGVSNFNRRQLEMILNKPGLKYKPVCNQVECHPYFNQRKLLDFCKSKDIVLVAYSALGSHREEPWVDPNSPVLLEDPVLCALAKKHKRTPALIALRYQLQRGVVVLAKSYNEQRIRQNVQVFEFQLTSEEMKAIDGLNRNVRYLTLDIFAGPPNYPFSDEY
quantity kind: pIC50
For clarity, pIC50 is expressed as the negative log10 of concentration in mol/L.

Here's what some known entries look like.
compound smiles: Cc1ccc(CNC(=O)c2cc(/C=C/C(=O)O)cc(-c3ccc4nccnc4c3)c2)cc1
pIC50: 4.15
--
compound smiles: Cc1ccc(CNC(=O)c2cc(/C=C/C(=O)O)cc(-c3ccc(-n4c5ccccc5c5ccccc54)cc3)c2)cc1
pIC50: 4.44
--
compound smiles: CC(C)=CCOc1cc(/C=C/C(=O)O)cc(C(=O)NCc2ccc(C)cc2)c1
pIC50: 4.28
--
compound smiles: Cc1ccc(CNC(=O)c2cc(/C=C/C(=O)O)cc(-c3ccc(Br)cc3)c2)cc1
pIC50: 3.97
--
compound smiles: Cc1ccc(CNC(=O)c2cc(/C=C/C(=O)O)cc(-c3ccc4ccccc4c3)c2)cc1
pIC50: 4.11

[in] Please give the documented pIC50 of Cc1ccc(CNC(=O)c2cc(/C=C/C(=O)O)cc(-c3ccc4cccnc4c3)c2)cc1
[out] 4.10

[in] Please give the documented pIC50 of C/C=C\Cc1cc(/C=C/C(=O)O)cc(C(=O)NCc2ccc(C)cc2)c1
[out] 4.09

[in] Please give the documented pIC50 of Cc1ccc(CNC(=O)c2cc(/C=C/C(=O)O)cc(-c3ccc(C)cc3)c2)cc1
[out] 4.18
